# test: Competitive binding affinity to Xenopus laevis PAM using (R)-Tyr-(S)-ValGly as substrate after 1 hr by HPLC analysis
Hi there, I'd appreciate the recorded IC50 for every entry that follows.
Answers are plain numbers, in µM.

{"structure": "O=C(O)CSC(=O)Cc1ccccc1", "unit_symbol": "µM", "IC50": 20}
{"structure": "CCCCCCCCCCCCCC(=O)OCC(=O)O", "unit_symbol": "µM", "IC50": 30}
{"structure": "O=C(O)CSC(=O)c1ccccc1", "unit_symbol": "µM", "IC50": 150}

Hello, I would appreciate it if you could give IC50 for each entry below.
1. CC(=O)N[C@@H](Cc1ccccc1)C(=O)SCC(=O)O
2. O=C(O)COC(=O)Cc1ccccc1

1: 25; 2: 510

For every record below, what is its IC50?
1. CCCCCCCCCC(=O)OCC(=O)O
2. CCCCCCCC(=O)OCC(=O)O
3. CCCCCCCCCC(=O)SCC(=O)O
4. O=C(O)COC(=O)c1ccccc1
5. CSCC[C@H](NC(C)=O)C(=O)SCC(=O)O
6. CCCCCC(=O)OCC(=O)O

[40, 250, 9, 250, 50, 780]

Would you mind giving IC50 for every compound in the list below?
1. CCCCCCCCCCCC(=O)OCC(=O)O
2. CC(=O)N[C@@H](CC(C)C)C(=O)SCC(=O)O

1: 35; 2: 260

Reference source: ChEMBL document CHEMBL3217555
